# study system: TLR5 of the cell-based reporter assays
# assay method text: cell-based or functional assay
Items are presented alongside their recorded Relative EC50 vs 502, Signaling (LecZ).
measurement name: Relative EC50 vs 502, Signaling (LecZ) (fold vs 502)

INSERT INTO measurements (binder, assay_result) VALUES
  ('CBLB502 variant 445 (ligand) MRGSHHHHHHGMASMTGGQQMGRDLYDLVPRGSAKDPMAQVINTNSLSLLTQNNLNKSQSSLSSAIERLSSGLRINSAKDDAAGQAIANRFTSNIKGLTQASRNANDGISIAQTTEGALNEINNNLQRVRELSVQATNGTNSDSDLKSIQDEIQQRLEEIDRVSNQTQFNGVKVLSQDNQMKIQVGANDGETITIDLQKIDVKSLGLDGFNVNSPGISGGGGGILDSMGTLINEDAAAAKKSTANPLASIDSALSKVDAVRSSLGAIQNRFD', 694),
  ('CBLB502 variant MF227C (ligand) MSGLRINSAKDDAAGQAIANRFTSNIKGLTQASRNANDGISIAQTTEGALNEINNNLQRVRELSVQATNGTNSDSDLKSIQDEIQQRLEEIDRVSNQTQFNGVKVLSQDNQMKIQVGANDGETITIDLQKIDVKSLGLDGFNVNSPGSTANPLASIDSALSKVDAVRSSLGAIQNRFDSAITNLGNTVTNLNSARSRIEDADYANQVPQNVLSLLVPRGSHHHHHHG', 5.5);
